Exercise: for every item that follows, state its recorded % Potentiation @ 3.33 μM Avg.
molecular target: human TMEM16A (TMEM16Aabc variant) (Homo sapiens, UniProt Q5XXA6, DEL476-501); assay: Automated whole-cell patch clamp (Qpatch) TMEM16A potentiator assay in recombinant cells; format: cell-based; details: 3.33 μM solution of test compound; percentage increase of baseline TMEM16A current; FRT cells stably expressing human TMEM16A; peak current at +70 mV; intracellular calcium at EC20
Sequence (Q5XXA6 with tags, fused parts or gaps isoform Q5XXA6-5 DEL539-564): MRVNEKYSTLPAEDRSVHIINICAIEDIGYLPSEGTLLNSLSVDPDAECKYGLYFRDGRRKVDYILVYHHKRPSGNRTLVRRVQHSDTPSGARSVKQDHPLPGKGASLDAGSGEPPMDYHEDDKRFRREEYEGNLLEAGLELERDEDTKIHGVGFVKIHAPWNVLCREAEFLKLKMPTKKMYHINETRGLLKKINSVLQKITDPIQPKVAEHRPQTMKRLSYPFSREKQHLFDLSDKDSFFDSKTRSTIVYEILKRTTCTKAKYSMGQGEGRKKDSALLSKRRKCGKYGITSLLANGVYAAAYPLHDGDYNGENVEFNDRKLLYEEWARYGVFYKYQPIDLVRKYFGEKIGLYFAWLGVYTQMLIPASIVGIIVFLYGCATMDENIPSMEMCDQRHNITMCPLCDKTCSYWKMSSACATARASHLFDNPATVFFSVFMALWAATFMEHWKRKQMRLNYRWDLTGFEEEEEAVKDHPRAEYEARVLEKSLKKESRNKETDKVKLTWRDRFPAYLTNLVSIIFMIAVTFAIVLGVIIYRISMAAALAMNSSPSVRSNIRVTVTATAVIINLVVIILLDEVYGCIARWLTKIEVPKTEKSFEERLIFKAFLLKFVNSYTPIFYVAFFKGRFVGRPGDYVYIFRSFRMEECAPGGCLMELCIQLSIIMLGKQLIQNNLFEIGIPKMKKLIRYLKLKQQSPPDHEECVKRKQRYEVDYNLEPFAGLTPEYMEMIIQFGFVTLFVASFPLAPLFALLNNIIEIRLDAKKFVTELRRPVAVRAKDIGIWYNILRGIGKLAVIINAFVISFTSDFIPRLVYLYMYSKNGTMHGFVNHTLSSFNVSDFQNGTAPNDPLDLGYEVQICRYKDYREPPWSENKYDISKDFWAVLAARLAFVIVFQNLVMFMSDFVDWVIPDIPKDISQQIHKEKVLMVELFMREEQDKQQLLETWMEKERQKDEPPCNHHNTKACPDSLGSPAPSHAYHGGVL
Please state the figure in %; there is no need to write the unit.

Query :: Which % Potentiation @ 3.33 μM Avg is listed for O=C(NCC1CCCC1)c1ccc2[nH]c(Cc3ccccc3)nc2c1 [Example 24.1] ?
Result :: 106

Query :: Which % Potentiation @ 3.33 μM Avg is listed for O=C(NCC1CCCCCC1)c1ccn2cc(Cc3ccccc3)nc2c1 [Example 15] ?
Result :: 58.6

Query :: Which % Potentiation @ 3.33 μM Avg is listed for O=C(CC12CC3CC(CC(C3)C1)C2)Nc1ccc2[nH]c(CC3CCCCC3)nc2c1 [Example 1] ?
Result :: 157.3

Query :: Which % Potentiation @ 3.33 μM Avg is listed for O=C(NCC1CCCCCC1)c1ccc2[nH]c(Cc3cccc(F)c3O)nc2c1 [Example 25.2] ?
Result :: 83

Query :: Which % Potentiation @ 3.33 μM Avg is listed for CC(C)(C)c1nc2ccc(C(=O)NCC3CCCCCC3)cc2[nH]1 [Example 20] ?
Result :: 85.9

Query :: Which % Potentiation @ 3.33 μM Avg is listed for CC(C)(C)Cc1nc2cc(NC(=O)Cc3cc(Cl)ccc3O)ccc2[nH]1 [Example 26] ?
Result :: 69
